These entries and their values trace back to the supplement of paper PMC10567573.

B1: VPS39 (parent)
chain: QQVKCIITEEKVCMVCKKKIGNSA

- Variants of: B1
- experiment_description: protein stability index of a GFP-peptide fusion (GPS, HEK-293T) (PSI 1-6); higher = more stable;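 further: lentivirally expressed fusions sorted by FACS into six bins by GFP to DsRed ratio, PSI derived from sequencing read proportions per bin multiplied by bin number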
- applied_conditions: c terminus: a fixed tail appended
Is protein stability index at least 3? Then Condition met. If not, Condition not met.

QPVKCIITEEKVCMVCKKKIGNSA [Q2P] : Condition not met

Q) Hi, just wondering whether QQVKCIITEEKVCMVCKKKGGNSA [I20G] shows protein stability index of 3 or higher.
A) Condition not met

Q) Determine whether measured protein stability index meets or exceeds 3 for QQVKCIITEEKVAMVCKKKIGNSA [C13A]
A) Condition met

Q) Evaluate QQVKCIITYEKVCMVCKKKIGNSA [E9Y] : protein stability index at minimum 3?
A) Condition not met
